meta.source: patent US20210095036A1

Molecular target: T1, GFRα4 isoform b (GFRα4b), Fc fusion (human)
T1 construct: the entry holds the whole fusion; also called GFR4α4b; GFRα4-Fc
T1 sequence (chain, as listed by the source limits assumed): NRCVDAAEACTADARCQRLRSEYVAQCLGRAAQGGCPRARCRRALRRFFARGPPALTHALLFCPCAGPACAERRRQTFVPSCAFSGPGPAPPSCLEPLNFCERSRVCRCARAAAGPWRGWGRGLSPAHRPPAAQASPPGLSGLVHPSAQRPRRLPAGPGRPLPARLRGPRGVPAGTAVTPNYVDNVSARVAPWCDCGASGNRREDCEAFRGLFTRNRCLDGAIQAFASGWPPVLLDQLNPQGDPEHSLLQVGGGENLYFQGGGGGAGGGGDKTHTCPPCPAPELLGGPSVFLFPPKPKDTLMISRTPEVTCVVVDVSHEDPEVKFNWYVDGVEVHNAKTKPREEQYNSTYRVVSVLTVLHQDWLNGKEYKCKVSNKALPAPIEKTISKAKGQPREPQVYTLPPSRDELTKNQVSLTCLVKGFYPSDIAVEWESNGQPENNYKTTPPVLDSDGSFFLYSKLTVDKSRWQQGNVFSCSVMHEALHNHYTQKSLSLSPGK
Assay: phage ELISA, immobilized GFRα4b; second token of the cell

- binder: "17.H1.L3m2 (scFv, pIII not in the entry; order Vλ-linker-VH; also called scFv 17) scFv: QFVLTQPASVSGSPGQSITISCTLSSAHKTYTIDWYQQHPGKAPKLMIQVKSDGSYTKGTGVSNRFSGSSSGADRYLTISGLQAEDEADYYCGADDNGGYVFGGGTQLTVLGGGSSRSSSSGGGGSGGGGQVQLQESGPGLVKPSETLSLTCAVSGYSISRHALTWIRQPPGKGLEWIGAIDNAGTTYYASWAKSRVTISVDTSKNQFSLKLSSVTAADTAVYYCARVFYDINSGYYLDGMDLWGPGTLVTVSS"
  binding result: "binds"
- binder: "16.H1m1.L1m1 (scFv, pIII not in the entry; order Vλ-linker-VH; also called scFv 16) scFv: QFVLTQSPSASASLGASVKLTCTLSSAHKTYTIDWYQQQPEKGPRYLMQVKSDGSYTKGTGVPDRFSGSSSGADRYLTISSLQSEDEADYYCGADDNGGYVFGGGTQLTVTGGGSSRSSSSGGGGSGGGGQQSVKESGPGLVKPSETLSLTCAVSGFSLSRHALTWVRQPPGKGLEWIGAIDNAGTTYYASWAKSRVTISRNTDLHTVSLKLSSVTAADTAVYFCARVFYDINSGYYLDGMDLWGPGTLVTVSS"
  binding result: "binds"
- binder: "14.H1.L1m1 (scFv, pIII not in the entry; order Vλ-linker-VH; also called scFv 14) scFv: QFVLTQSPSASASLGASVKLTCTLSSAHKTYTIDWYQQQPEKGPRYLMQVKSDGSYTKGTGVPDRFSGSSSGADRYLTISSLQSEDEADYYCGADDNGGYVFGGGTQLTVTGGGSSRSSSSGGGGSGGGGQVQLQESGPGLVKPSETLSLTCAVSGYSISRHALTWIRQPPGKGLEWIGAIDNAGTTYYASWAKSRVTISVDTSKNQFSLKLSSVTAADTAVYYCARVFYDINSGYYLDGMDLWGPGTLVTVSS"
  binding result: "binds"
- binder: "29.H2.L1m3 (scFv, pIII not in the entry; order Vλ-linker-VH; The printed VL ends TVT; also called scFv 29) scFv: QLVLTQSPSASASLGASVKLTCTLSSAHKTYTIDWYQQQPEKGPRYLMQVKSDGSYTKGTGVPDRFSGSSSGADRYLTISSLQSEDEADYYCGADDNGGYVFGGGTQLTVTGGGSSRSSSSGGGGSGGGGEVQLVESGGGLVQPGGSLRLSCAASGFTFSRHALTWVRQAPGKGLEWVSAIDNAGTTYYASWAKSRFTISRDNAKNSLYLQMNSLRAEDTAVYYCARVFYDINSGYYLDGMDLWGPGTLVTVSS"
  binding result: "binds"
- binder: "28.H1.L3m5 (scFv, pIII not in the entry; order Vλ-linker-VH; also called scFv 28) scFv: QSALTQPASVSGSPGQSITISCTGTSAHKTYTVSWYQQHPGKAPKLMIYVKSDGSYTKGTGVPNRFSGSSSGADRYLTISGLQAEDEADYYCGADDNGGYVFGGGTQLTVLGGGSSRSSSSGGGGSGGGGQVQLQESGPGLVKPSETLSLTCAVSGYSISRHALTWIRQPPGKGLEWIGAIDNAGTTYYASWAKSRVTISVDTSKNQFSLKLSSVTAADTAVYYCARVFYDINSGYYLDGMDLWGPGTLVTVSS"
  binding result: "no binding"
- binder: "22.H1.L1m2 (scFv, pIII not in the entry; order Vλ-linker-VH; also called scFv 22) scFv: QFVLTQSPSASASLGASVKLTCTLSSAHKTYTIDWHQQQPEKGPRYLMQVKSDGSYTKGTGIPDRFSGSSSGAERYLTISSLQSEDEADYYCGADDNGGYVFGGGTQLTVLGGGSSRSSSSGGGGSGGGGQVQLQESGPGLVKPSETLSLTCAVSGYSISRHALTWIRQPPGKGLEWIGAIDNAGTTYYASWAKSRVTISVDTSKNQFSLKLSSVTAADTAVYYCARVFYDINSGYYLDGMDLWGPGTLVTVSS"
  binding result: "no binding"
